- Test system: HCT-116 colon
- Protocol Text: NCI tumour cell line growth inhibition, 48 h
# Lookup of reported TGI keyed by entry

{"columns": ["Compound", "Qualifier Symbol", "TGI (µM)"],
 "data": [
  ["CCSCCCC(=O)O", ">", 100],
  ["CN(C)CCNC(=O)c1cccc2c1nc(-c1ccncc1)c1ccccc12", "=", 9.23],
  ["CCC(C(=O)[C@@H](C)[C@@H](O)[C@H](C)[C@@H]1O[C@@H]([C@@H](CC)C(=O)ONC(=O)c2ccccc2)CC[C@@H]1C)[C@H]1O[C@]2(C=CC(=O)[C@]3(CC[C@@](C)([C@H]4CC[C@](O)(CC)[C@H](C)O4)O3)O2)[C@H](C)C[C@@H]1C (some centres undefined)", "=", 1.91],
  ["C=CCN1C(=O)[C@]2(SC1=S)[C@H](c1cccc(Cl)c1)CN(C)[C@]21C(=O)NC2C=CC(Cl)=C[C@H]21 (some centres undefined)", "=", 13.9],
  ["Cc1nn(-c2ccccc2)c2nc(C)n(-c3ccc(Br)cc3)c(=O)c12", ">", 65.4],
  ["N#CC(C#N)=Cn1c(=S)[nH]c2ccc([N+](=O)[O-])cc21", ">", 100],
  ["COc1cc([C@@H]2c3cc4c(cc3[C@@H](NC(=O)NO)[C@H]3COC(=O)[C@H]23)OCO4)cc(OC)c1O", ">", 100],
  ["Cc1ccc(NC(=O)CCC(=O)C2Cc3ccccc3C2=O)cc1C (centres undefined)", ">", 100],
  ["CC1OC(CC2C=CCc3c(O)c4c(c(O)c32)C(=O)c2ccccc2C4=O)CC(NC(=O)C(F)(F)F)C1O (centres undefined)", "=", 11.4],
  ["CC(=O)N1N=C(c2ccc3ccccc3c2O)CC1c1ccc(N(C)C)cc1 (centres undefined)", ">", 100],
  ["COc1cccc(/C=C/C(=O)N2CC(CCl)c3c2cc(N)c2ccccc32)c1 (centres undefined)", "=", 1.27],
  ["NS(=O)(=O)c1cc(C(=O)O)c(Cl)c([N+](=O)[O-])c1Cl", ">", 100],
  ["CCCCCCCCCCCCCCCCCCOCC(O)CO (centres undefined)", ">", 25],
  ["Cc1ccc(/C(=C/C=C(C#N)C#N)Sc2nc3ccccc3s2)cc1", "=", 6.3],
  ["CC(=O)OCC1=CC2CCC3C(C)(CCC[C@]3(C)COC(C)=O)C23CC[C@H]1C3 (some centres undefined)", ">", 100],
  ["CCOC(=O)CCc1ccc(NC(=O)/C=C/c2ccc([N+](=O)[O-])o2)cc1", "=", 2.01],
  ["C/C(=N/N)c1sc(-c2nc(C)c(/C(C)=N\\N)s2)nc1C", ">", 100],
  ["C=C1C(O)C2CC(C)(C)C(=O)C2=C(CC(C)C)C12CC2 (centres undefined)", ">", 100],
  ["NC(=O)NC(=O)c1cccc(NC(=O)CCl)c1", "=", 1.83]
]}

====

- System: U251 CNS
- Protocol Text: NCI tumour cell line growth inhibition, 48 h
# Lookup of reported TGI keyed by entry

{"columns": ["Compound", "TGI"],
 "data": [
  ["CC(=O)O[C@H]1CC[C@]2(C)C3C(=O)C[C@]4(C)[C@@H](C(C)CCC(=O)O)CC[C@@]4(C)[C@@H]3CC[C@H]2C1(C)C (stereo not given in full)", "20 µM"],
  ["O=C(O)c1cc(Cl)cc(Cc2cc(Cl)cc(C(=O)O)c2O)c1O", "> 100 µM"],
  ["O=C1NC(N2CCCCC2)=N/C1=C\\c1ccco1", "> 100 µM"],
  ["COC1C(=O)N(SC)C1c1ccccc1Cl (stereo not given)", "> 100 µM"],
  ["Nc1nc(N)c(-c2ccc(Cl)c(Cl)c2)c(CP(Cl)(Cl)(Cl)Br)n1", "> 100 µM"],
  ["Cc1cn(C2CC(O)C(COC(N)=O)O2)c(=O)[nH]c1=O (stereo not given)", "> 100 µM"],
  ["C[Si](C)(C)/C=C/CN1C(=O)CCC1=O", "> 100 µM"],
  ["NC(=O)NC(=O)c1cccc(NC(=O)CCl)c1", "2.41 µM"],
  ["N#CCCN(CCC#N)c1ccc(/C=C(/NC(=O)Nc2ccccc2Cl)NC(=O)c2cc([N+](=O)[O-])ccc2Cl)cc1", "> 100 µM"],
  ["COc1ccc(/C=C/c2nc(=S)[nH][nH]2)cc1OC", "> 100 µM"]
]}

====

- System: SNB-75 CNS
- Protocol Text: NCI tumour cell line growth inhibition, 48 h
# Lookup of reported GI50 keyed by entry

{"columns": ["Molecule", "GI50"],
 "data": [
  ["CC(O)C1OC(n2ccc(=O)[nH]c2=O)CC1n1cncn1 (centres undefined)", "> 100 µM"],
  ["CCOC(=O)c1cc(C(=O)c2cc(OC)c(OC)c(OC)c2)n2ccc(-c3cc[n+](CC(=O)c4cc(OC)c(OC)c(OC)c4)cc3)cc12", "1.46 µM"],
  ["CCCCC[C@H]1C/C=C2/C(=O)C(Cl)=C[C@@H]2C/C=C\\CCCC(=O)O1", "1.76 µM"],
  ["CC1(C)CN(CCNc2nccc(-c3c(-c4cccc(O)c4)nc4sccn34)n2)S(=O)(=O)N1", "5.14 µM"],
  ["CCOC(=O)CCSC1=CC(=O)c2nc3ccccc3c3ccnc1c23", "39 µM"],
  ["NCCCNc1nc2ccccc2c2c(=O)c3cc(F)cc(Cl)c3sc12", "1.54 µM"],
  ["CC(=O)[CH-]C(=O)c1ccccc1.CC(=O)[CH-]C(=O)c1ccccc1.CC(=O)[CH-]C(=O)c1ccccc1.[Br-].[Zr+4]", "34 µM"],
  ["CCN(CC)CCCNc1cc(OC)c(OC)c2cccnc12", "3.05 µM"],
  ["OCC1OC(n2cnc3c(NCc4ccccc4O)ncnc32)C(O)C1O (centres undefined)", "1.74 µM"],
  ["CC(=N\\O)/C(C)=N/O.CC(=N\\O)/C(C)=N/O.[Fe].[NH2-].c1c[nH]cn1", "> 100 µM"],
  ["C=C1C(=O)O[C@H]2[C@H]1CC/C(COC(=O)/C=C\\C(=O)NCc1ccc(Cn3c(=O)sn(-c4ccc(Cl)cc4)c3=O)cc1)=C\\CC[C@@]1(C)O[C@@H]21", "0.623 µM"],
  ["O=c1[nH]c2ccccc2n1C1CCN(CCOc2ccccc2)CC1", "23.7 µM"],
  ["C(=C\\c1ccc(OCC2CO2)cc1)/C1=NCOC1 (centres undefined)", "16.6 µM"],
  ["NC(=O)c1ncn2c(=O)n(CCCl)nnc12", "23.7 µM"]
]}

====

# Lookup of reported TGI keyed by entry
- Test system: LOX IMVI melanoma
- Protocol Text: NCI tumour cell line growth inhibition, 48 h
Reported Property: TGI (µM)

{"columns": ["Compound", "Study System", "Value Unit", "Qualifier Symbol", "Obs Value"],
 "data": [
  ["N#CCCN(CCC#N)c1ccc(/C=C(/NC(=O)Nc2ccccc2Cl)NC(=O)c2cc([N+](=O)[O-])ccc2Cl)cc1", "LOX IMVI melanoma", "µM", ">", 100],
  ["C[C@]12CC[C@H](O)CC1=CC[C@@H]1[C@@H]2CC[C@]2(C)NC(=O)/C(=C\\c3ccccc3)C[C@@H]12", "LOX IMVI melanoma", "µM", "=", 42.5],
  ["CCCCCCCCCCCCCCCCCCOCC(O)CO (stereo not given)", "LOX IMVI melanoma", "µM", ">", 25],
  ["OCC1OC(n2cnc3c(NCc4ccco4)ncnc32)C(O)C1O (stereo not given)", "LOX IMVI melanoma", "µM", "=", 1.48],
  ["O=C1c2ccccc2C(=O)c2sc(Nc3ccc([N+](=O)[O-])cc3)nc21", "LOX IMVI melanoma", "µM", "=", 4.66],
  ["CC(C)CC1NC(=O)CCC(NC(=O)C(Cc2ccc(O)cc2)NC(=O)OCc2ccccc2)C(=O)NC(Cc2ccccc2)C(=O)NC(Cc2ccccc2)NC1=O (stereo not given)", "LOX IMVI melanoma", "µM", ">", 100],
  ["Cc1ccc2c(c1)CC1(C2)Cc2ccc(C)cc2C1=O (stereo not given)", "LOX IMVI melanoma", "µM", "=", 36.4],
  ["O=C1C2C3C=C4c5ccccc5N(c5ccccc5)C4([C@@H]2C(=O)N1c1ccc(F)cc1)[C@H]1C(=O)N(c2ccc(F)cc2)C(=O)[C@@H]31 (stereo not given in full)", "LOX IMVI melanoma", "µM", ">", 100],
  ["Nc1no[n+]([O-])c1-c1nnc2c(n1)-c1ccccc1C2=O", "LOX IMVI melanoma", "µM", "=", 4.16],
  ["O=c1[nH]c2ccccc2n1C1CCN(CCOc2ccccc2)CC1", "LOX IMVI melanoma", "µM", ">", 100],
  ["CC(C)(C)OC(=O)C1/C(=C/CBr)CN1C(=O)OC(C)(C)C (stereo not given)", "LOX IMVI melanoma", "µM", "=", 11.4],
  ["CCOC(=O)C1=NNC(C(=O)c2ccccc2)C1c1ccccc1 (stereo not given)", "LOX IMVI melanoma", "µM", "=", 10.6],
  ["COc1cc2c(cc1OC)[C@H]1C(COC(=O)Nc3ccccc3)CN1CC2 (stereo not given in full)", "LOX IMVI melanoma", "µM", ">", 100],
  ["O=c1[nH]c(=O)n(C2OC(CO)C(O)C2O)cc1F (stereo not given)", "LOX IMVI melanoma", "µM", "=", 7.18],
  ["COC(=O)[C@H](C)N(C)C(=O)[C@H](C)N1[C@@H](c2ccccc2)COC1(C)C", "LOX IMVI melanoma", "µM", ">", 100]
]}
